assayMethodText: Pharmacokinetic properties in dual canulated Sprague Dawley rats
Assay type: in vivo
statedConditions: male, Sprague Dawley, plasma; rat, IV, 5 mg/kg
observable: AUC(0-t) (ng·h/mL)

- O=c1ccc(C(F)(F)F)cn1-c1ccccc1: 30200

A = O=c1ccc(C(F)F)cn1-c1ccccc1
B = O=c1ccc(Br)cn1-c1ccccc1
# compare AUC(0-t) for A vs B ; return the one with the smaller value Write down the label attached to your selection.
B
(B: 10300 ng·h/mL, A: 35000 ng·h/mL)

* * *

Test system: TNFα release from THP-1 cells stimulated with lipopolysaccharide (LPS)
assayMethodText: Inhibition of TNFα release from THP-1 cells stimulated with lipopolysaccharide (LPS)
Assay type: cell-based
statedConditions: Homo sapiens, read-out: TNF EC50
pEC50: −log10 of the molar value.
Reported pEC50 values for a set of compounds

Recorded pEC50 for Cc1ccc(=O)n(-c2ccccc2)c1 [Compound 13, 5-methyl-1-phenyl-2-(1H)-pyridone, reference compound] with TNFα release from THP-1 cells stimulated with lipopolysaccharide (LPS), please?
≥ 2.70

Please answer likewise for Cc1ccc(=O)n(-c2ccc(O)cc2)c1 [Compound 5]
≥ 2.70

Please answer likewise for O=c1ccc(Br)cn1-c1ccc(O)cc1 [Compound 30]
≥ 2.70

Please answer likewise for O=c1ccccn1-c1ccccc1 [Compound 7]
< 2.70

Please answer likewise for COCc1ccc(=O)n(-c2ccccc2)c1 [Compound 6]
≥ 2.70

* * *

assayMethodText: Pharmacokinetic properties in dual canulated Sprague Dawley rats
Assay type: in vivo
statedConditions: male, Sprague Dawley, plasma; rat, Oral, 50 mg/kg
observable: AUC(0-t) (µg·h/mL)

1 = O=c1ccc(Br)cn1-c1ccccc1
2 = O=c1ccc(C(F)F)cn1-c1ccccc1
3 = O=c1ccc(C(F)(F)F)cn1-c1ccccc1
Number of molecules to sort: 3. Sort criterion: AUC(0-t), ascending. // rank by listing labels in the order requested
1, 3, 2

* * *

Test system: TNFα release from THP-1 cells stimulated with lipopolysaccharide (LPS)
assayMethodText: Inhibition of TNFα release from THP-1 cells stimulated with lipopolysaccharide (LPS)
Assay type: cell-based
statedConditions: Homo sapiens, read-out: TNF EC50
pEC50: −log10 of the molar value.
observable: pEC50

- O=c1ccc(C(F)(F)F)cn1-c1ccccc1 [Compound 8]: < 2.70
- O=c1ccc(Br)cn1-c1ccccc1 [Compound 26]: ≥ 2.70
- COc1ccc(-n2cc(CF)ccc2=O)cc1 [Compound 31]: ≥ 2.70
- Cc1ccc(=O)n(-c2cc[n+](C)cc2)c1 [Compound 25]: < 2.70
- Cc1ccc(=O)n(-c2ccc(F)cc2)c1 [Compound 14]: < 2.70
- COc1ccc(-n2cc(C(F)F)ccc2=O)cc1 [Compound 32]: ≥ 2.70

Using the record for O=c1ccccn1-c1ccc(F)cc1 [Compound 11] , report its pEC50.
< 2.70

Please answer likewise for O=c1ccc(CO)cn1-c1ccccc1 [Compound 1]
< 2.70

Please answer likewise for O=c1ccc(C(F)(F)F)cn1-c1ccc(O)cc1 [Compound 10]
≥ 2.70

Please answer likewise for COc1ccc(-n2cc(Br)ccc2=O)cc1 [Compound 27]
≥ 2.70

Please answer likewise for Cc1cc(O)c(=O)n(-c2ccccc2)c1 [Compound 4]
≥ 2.70

* * *

assayMethodText: Pharmacokinetic properties in dual canulated Sprague Dawley rats
Assay type: in vivo
statedConditions: male, Sprague Dawley, plasma; rat, IV, 5 mg/kg
observable: MRT inf (h)

I = O=c1ccc(C(F)(F)F)cn1-c1ccccc1 [Compound 8]
II = O=c1ccc(C(F)F)cn1-c1ccccc1 [Compound 19]
III = O=c1ccc(Br)cn1-c1ccccc1 [Compound 26]
Number of molecules to sort: 3. Sort criterion: MRT inf, ascending. // rank by listing labels in the order requested
III, II, I
